- MEASURED TARGET: acetylcholinesterase (AChE) (Homo sapiens, UniProt P22303)
- Sequence (P22303 32-614, species assumed): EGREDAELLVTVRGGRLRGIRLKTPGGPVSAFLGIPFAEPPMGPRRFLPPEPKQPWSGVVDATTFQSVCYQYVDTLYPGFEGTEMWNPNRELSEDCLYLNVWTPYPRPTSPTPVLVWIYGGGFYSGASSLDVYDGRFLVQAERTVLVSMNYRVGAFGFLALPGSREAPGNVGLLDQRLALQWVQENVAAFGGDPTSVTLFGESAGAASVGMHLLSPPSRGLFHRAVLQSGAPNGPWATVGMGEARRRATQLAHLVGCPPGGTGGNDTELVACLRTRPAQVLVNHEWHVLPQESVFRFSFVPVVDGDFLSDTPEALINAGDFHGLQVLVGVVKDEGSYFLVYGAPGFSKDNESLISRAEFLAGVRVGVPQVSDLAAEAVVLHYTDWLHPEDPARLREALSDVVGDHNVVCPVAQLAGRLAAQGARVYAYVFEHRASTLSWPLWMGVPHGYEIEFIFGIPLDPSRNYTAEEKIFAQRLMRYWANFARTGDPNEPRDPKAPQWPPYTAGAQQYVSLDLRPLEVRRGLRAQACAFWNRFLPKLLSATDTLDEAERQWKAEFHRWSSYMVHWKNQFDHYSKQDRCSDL
- Type: biochemical
- TEST CONDITIONS: at 100 µM
OBSERVED PROPERTY: Anti ACHE % (%)

>>> reported_value("Cc1cccc(COc2cc(O)c3c(=O)cc(-c4ccccc4)oc3c2)c1")
55.3
>>> reported_value("COc1cc(-c2cc(=O)c3ccc4c(O)cccc4c3o2)cc(OC)c1OC")
43.3
>>> reported_value("CC1OC(OCC2OC(Oc3c(-c4ccc(OCCO)c(OCCO)c4)oc4cc(OCCO)cc(O)c4c3=O)C(O)C(O)C2O)C(O)C(O)C1O (stereo not drawn) [Molecule M6, trihydroxyethylrutin]")
33.7
